Each item that follows carries a reported inhibition.
# ASSAY SYSTEM: Enoyl-[acyl-carrier-protein] reductase [NADH] (Mycobacterium tuberculosis) (UniProt P9WGR1)
# Sequence (P9WGR1 whole entry): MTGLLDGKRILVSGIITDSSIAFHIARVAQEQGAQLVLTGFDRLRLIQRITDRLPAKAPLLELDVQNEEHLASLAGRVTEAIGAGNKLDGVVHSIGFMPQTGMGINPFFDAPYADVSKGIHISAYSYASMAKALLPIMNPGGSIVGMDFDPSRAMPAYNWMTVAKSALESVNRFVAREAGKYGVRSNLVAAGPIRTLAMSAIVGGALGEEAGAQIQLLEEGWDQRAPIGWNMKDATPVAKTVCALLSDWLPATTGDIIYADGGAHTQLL
# ASSAY: Inhibition of Mycobacterium tuberculosis recombinant InhA expressed in Escherichia coli BL21 (DE3) using 2-trans-decenoyl substrate at 10 uM by spectrophotometry
ENDPOINT: inhibition (%)

| SMILES CODE | OBSERVED |
| --- | --- |
| O=C(Cn1cnc2ccc(Cl)cc2c1=O)NCc1cccs1 | 68.9 |
| Cc1nc2ccccc2c(=O)n1CC(=O)Nc1ccccc1 | 60.1 |
| Cc1nc2ccccc2c(=O)n1CC(=O)NCc1ccco1 | 70.1 |
| O=C(Cn1cnc2ccc(Cl)cc2c1=O)Nc1cc(C(F)(F)F)ccc1Cl | 80.1 |
| O=C(Cn1cnc2ccccc2c1=O)Nc1ccccc1 | 52.1 |
| Cc1nc2ccc(Cl)cc2c(=O)n1CC(=O)NCc1nc2ccc([N+](=O)[O-])cc2s1 | 54.1 |

Taken from ChEMBL document CHEMBL3352048.
